Cited source for all entries: patent US5627203A

Attribute: IC50
# ASSAYED_TARGET: 5-HT1A receptors (Rattus norvegicus)
# Sequence (P19327 1-422): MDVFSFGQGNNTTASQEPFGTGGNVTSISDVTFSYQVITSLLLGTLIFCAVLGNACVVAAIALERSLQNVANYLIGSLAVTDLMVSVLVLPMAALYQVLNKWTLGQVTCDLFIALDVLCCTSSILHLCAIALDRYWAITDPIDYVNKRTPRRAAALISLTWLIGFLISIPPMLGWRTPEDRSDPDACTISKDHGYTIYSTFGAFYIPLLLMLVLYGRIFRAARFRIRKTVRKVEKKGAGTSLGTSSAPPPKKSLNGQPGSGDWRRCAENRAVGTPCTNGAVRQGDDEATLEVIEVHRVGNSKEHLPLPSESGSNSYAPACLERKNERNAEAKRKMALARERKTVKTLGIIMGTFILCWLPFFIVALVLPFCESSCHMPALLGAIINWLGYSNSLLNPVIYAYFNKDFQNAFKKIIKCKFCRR
Could you give me the number in µM? Just the number is fine.

Reference set, count: 6
CC(CON=C1c2ccccc2-n2cccc21)N(C)C (stereo not shown) [Example 55] | 3.8
CN(C)CCON=C1c2cc(Cl)ccc2-n2cccc21 [Example 49] | 21
Cc1csc2c1-n1cccc1C2=NOC(CCN(C)C)c1ccccc1 (stereo not shown) [Example 39] | 11
Cc1csc2c1-n1cccc1/C2=N/OCC(C)N(C)C (stereo not shown) [Example 22] | 9
Cc1ccc2c(c1)C(=NOCC(C)N(C)C)c1cccn1-2 (stereo not shown) [Example 52] | 3.3
CN(C)CCON=C1c2sccc2-n2cccc21 [Example 4] | 0.48

So, Cc1csc2c1-n1cccc1/C2=N/OCC(C)CN(C)C (stereo not shown) [Example 23] ? Its IC50 was 52

---

# ASSAYED_TARGET: serotonin reuptake site (Rattus norvegicus, UniProt P31652)
# Construct: rat brain from which the cerebellum has been removed
# Sequence (P31652 whole entry): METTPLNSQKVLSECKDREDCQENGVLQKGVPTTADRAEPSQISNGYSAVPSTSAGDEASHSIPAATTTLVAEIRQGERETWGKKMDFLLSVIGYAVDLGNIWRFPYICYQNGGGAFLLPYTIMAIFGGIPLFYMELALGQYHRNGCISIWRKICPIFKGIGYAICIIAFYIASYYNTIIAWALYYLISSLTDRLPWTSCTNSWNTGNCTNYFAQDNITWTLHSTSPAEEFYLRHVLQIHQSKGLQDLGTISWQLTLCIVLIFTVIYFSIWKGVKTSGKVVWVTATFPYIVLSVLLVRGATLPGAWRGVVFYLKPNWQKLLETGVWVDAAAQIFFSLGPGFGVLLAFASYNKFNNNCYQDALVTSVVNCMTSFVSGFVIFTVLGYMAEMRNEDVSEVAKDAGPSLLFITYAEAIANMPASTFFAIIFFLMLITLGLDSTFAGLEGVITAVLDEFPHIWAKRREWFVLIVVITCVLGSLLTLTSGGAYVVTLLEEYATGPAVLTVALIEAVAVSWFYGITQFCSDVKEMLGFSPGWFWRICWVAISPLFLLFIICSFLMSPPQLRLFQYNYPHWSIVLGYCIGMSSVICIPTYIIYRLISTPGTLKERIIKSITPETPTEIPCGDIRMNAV
# TEST_NAME: Displacement of 3H-paroxetine at the serotonin reuptake site
# TEST_CONTEXT: rat brain without cerebellum, read-out: IC50, serotonin reuptake sites
Hi! Could you tag entries with IC50 below 300 nM as Condition met, and those at or above as Condition not met? Much appreciated.

For orientation, consider the following solved cases.
Cc1ccc2c(c1)C(=NOCCC1CCCN1C)c1cccn1-2 (centres unmarked) [Example 53] | Condition not met
CN(C)CCON=C1c2sccc2-n2cccc21 [Example 4] | Condition not met
CCN(CC)CCON=C1c2scc(C)c2-n2cccc21 [Example 15] | Condition met

## Task Threshold test, IC50 < 300 nM: Cc1csc2c1-n1cccc1/C2=N/OCCN(C)C [Example 3]
## Result Condition met

## Task Threshold test, IC50 < 300 nM: Cc1csc2c1-n1cccc1C2=NOCCN1CCCCC1 [Example 18]
## Result Condition met
